# System: P12-Ichikawa
# assay.overview: cell viability relative to DMSO control; higher = less cytotoxic
# run.parameters: HPLM + 10% dialyzed FBS; 48 h; 0.19 µM
List of cell viability values.
Your answer is read as %, so omit the unit and give the number.

compound: COc1ccc(-c2cc3c(C)nc(N)nc3n([C@H]3CC[C@H](OCCO)CC3)c2=O)cn1
study.target: P12-Ichikawa
metric: cell viability
measurement.unit: %
value: 72
//
compound: CC(C)N(CCCNC(=O)Nc1ccc(C(C)(C)C)cc1)C[C@H]1O[C@@H](n2cc(Br)c3c(N)ncnc32)[C@H](O)[C@@H]1O
study.target: P12-Ichikawa
metric: cell viability
measurement.unit: %
value: 94
//
compound: CCCCCCCN(CC)CCCC(O)c1ccc(NS(C)(=O)=O)cc1.CCCCCCCN(CC)CCCC(O)c1ccc(NS(C)(=O)=O)cc1.O=C(O)/C=C/C(=O)O (configuration not stated)
study.target: P12-Ichikawa
metric: cell viability
measurement.unit: %
value: 125
//
compound: CN1CCC(=C2c3ccccc3CCc3sccc32)CC1
study.target: P12-Ichikawa
metric: cell viability
measurement.unit: %
value: 118
//
compound: NC(=O)[C@@H](CCC(F)(F)F)N(Cc1ccc(-c2ncon2)cc1F)[S+](=O)([O-])c1ccc(Cl)cc1
study.target: P12-Ichikawa
metric: cell viability
measurement.unit: %
value: 96.2
//
compound: CN(C)Cc1cccc(N/C(=C2\C(=O)Nc3cc(C(=O)N(C)C)ccc32)c2ccccc2)c1
study.target: P12-Ichikawa
metric: cell viability
measurement.unit: %
value: 114

Provide only the value of recorded cell viability for "CC[C@@H](C)[C@H](NC(=O)[C@H](CC1CCCCC1)NC(=O)c1ccno1)C(=O)N1CCC2(CCc3ccccc32)CC1"
94.1

* * *

We begin with a simple list: items and their reported cell viability.
# Tested on: NOMO1
# assay.overview: cell viability relative to DMSO control; higher = less cytotoxic
# run.parameters: HPLM + 10% dialyzed FBS; 48 h; 0.0632 µM
Expressed in %, but write only the number.

Worked set:
compound: C[C@@H](Oc1ccc2[nH]nc(/C=C/c3cnn(CCO)c3)c2c1)c1c(Cl)cncc1Cl
measurement.unit: %
cell viability: 99.9
--
compound: CCOC\1=C(/C(=O)NC2=CC=C(OC3=C(Cl)C(=NC=C3)N)C(=C2)F)C(=O)N(\C=C1)C4=CC=C(F)C=C4
measurement.unit: %
cell viability: 102
--
compound: NC(=O)c1c(OCc2c(F)cc(Br)cc2F)nsc1NC(=O)NCCCCN1CCCC1
measurement.unit: %
cell viability: 76.8
--
compound: Cc1nc(N)sc1-c1ccnc(Nc2ccc(N3CCOCC3)cc2)n1
measurement.unit: %
cell viability: 110
--
compound: COc1cc2nc(N3CCN(C(=O)c4ccco4)CC3)nc(N)c2cc1OC
measurement.unit: %
cell viability: 98.3
--
compound: Clc1ccc(C(Cn2ccnc2)OCc2ccc(Sc3ccccc3)cc2)c(Cl)c1 (stereo not drawn)
measurement.unit: %
cell viability: 146
--
compound: Cc1ccc([S+](=O)([O-])NC(=O)NN2CC3CCCC3C2)cc1 (stereo not drawn)
measurement.unit: %
cell viability: 134
--
compound: CN1CCN(CC1)C/2=N/C3=CC=CC=C3NC4=C2C=C(C)S4
measurement.unit: %
cell viability: 110
--
compound: CN1C(=O)\C(=C/C2=C1N=C(NC3CCOCC3)N=C2)OC4=C(F)C=C(F)C=C4
measurement.unit: %
cell viability: 119
--
compound: COc1ccc(-c2cc3c(C)nc(N)nc3n([C@H]3CC[C@H](OCCO)CC3)c2=O)cn1
measurement.unit: %
cell viability: 74.2

# assay system NOMO1: give cell viability of "CN1CCN(c2cc(C(=O)Nc3ccc4c(c3)-c3c(c(C(N)=O)nn3-c3ccc(F)cc3)CC4)c(Cl)cn2)CC1"
114

Report cell viability from NOMO1 testing of COc1ccccc1OCC(O)CN1CCN(CC(=O)Nc2c(C)cccc2C)CC1 (stereo not drawn)
129

Fill: cell viability (NOMO1) for this compound "O=C(N[C@H]1CN2CCC1CC2)c1ccc(Cl)cc1"
123

State cell viability (NOMO1) of "NC(=O)Cc1cccc(C(=O)c2ccccc2)c1N" .
108

Write down the reported cell viability (system: NOMO1) of "CC(=O)O[C@@]12CO[C@@H]1C[C@H](O)[C@]3(C)[C@@H]2[C@H](OC(=O)C4=CC=CC=C4)[C@]5(O)C[C@H](O)/C(=C(/[C@@H](O)C3=O)C5(C)C)C"
130

Answer briefly: cell viability recorded on NOMO1 for Clc1ccc(C(Cn2ccnc2)OCc2ccsc2Cl)c(Cl)c1 (stereo not drawn)
103

Lab note: NOMO1 assay, enter cell viability for "CC1(C)NC(=O)N(c2ccc([N+](=O)[O-])c(C(F)(F)F)c2)C1=O" here
96.2

State measured cell viability of the compound "COCCNCCCn1c(C(=O)CF)c(-c2ccc(C)cc2)c2c(N)ncnc21" with NOMO1.
117

* * *

# Test system: NOMO1
# assay.overview: cell viability relative to DMSO control; higher = less cytotoxic
# run.parameters: RPMI 5 mM glucose + 10% FBS; 48 h; 0.000781 µM
Overview of reported cell viability across a group of molecules:
Answer in %, number only, no unit symbol.

Observe how each entry below is paired with its result.
molecule: O=C(/C=C/c1cccnc1)NCCCCC1CCN(C(=O)c2ccccc2)CC1
study.target: NOMO1
cell viability / %: 105

molecule: COC(=O)Nc1nc2cc(Sc3ccccc3)ccc2[nH]1
study.target: NOMO1
cell viability / %: 114

molecule: CC(C)C[C@@H](C(=O)N[C@H](C(=O)OC1CCCC1)c1ccccc1)[C@H](O)C(=O)NO
study.target: NOMO1
cell viability / %: 111

molecule: C[C@@H](Oc1ccc2[nH]nc(/C=C/c3cnn(CCO)c3)c2c1)c1c(Cl)cncc1Cl
study.target: NOMO1
cell viability / %: 94.6

Specify cell viability for "COc1cc([S+](C)(=O)[O-])ccc1Nc1nc2ccc(-c3ccc(NC(=O)[C@H](C)c4ccc(F)cc4)cc3)cn2n1" and stop.
106

Recall and state the measured cell viability for "CCOC(=O)c1c(/C(C#N)=C\N)c2ccc(Cl)c(Cl)c2n1C" .
81.9

Respond only with cell viability recorded for COc1ccc(CC2SC(=O)NC2=O)cc1C(=O)NCc1ccc(C(F)(F)F)cc1 (stereo not drawn)
75.9

In one line, give reported cell viability of the entry Cc1ccccc1C(C(=O)NC1CCCC1)N(C(=O)Cn1cnc2ccccc21)c1cccc(F)c1 (stereo not drawn) .
118

* * *

# Test system: P12-Ichikawa
# assay.overview: cell viability relative to DMSO control; higher = less cytotoxic
# run.parameters: RPMI 5 mM glucose + 10% dialyzed FBS; 48 h; 0.0632 µM
cell viability overview
// units = %; emit number, no label

Here are 5 compounds together with their reported answers.
chem.smiles: O=C(c1ccc(C(=O)N2CCC(N3CCCC3)CC2)c(Nc2ccccc2)c1)N1CCC(N2CCCC2)CC1
cell viability [%]: 100
--
chem.smiles: Cc1cc(-c2ccc(CC(=O)Nc3ccc(-c4cccnc4)cc3)cc2)ccn1
cell viability [%]: 119
--
chem.smiles: NC(=O)Cc1cccc(C(=O)c2ccccc2)c1N
cell viability [%]: 96.1
--
chem.smiles: CN1C(=O)\C(=C/C2=C1N=C(NC3CCOCC3)N=C2)OC4=C(F)C=C(F)C=C4
cell viability [%]: 96.3
--
chem.smiles: C=C1C(=O)O[C@@H]2[C@H]3O[C@]3(C)CC/C=C(\C)CC[C@@H]12
cell viability [%]: 127

Read the entry "CN(C)Cc1cccc(N/C(=C2\C(=O)Nc3cc(C(=O)N(C)C)ccc32)c2ccccc2)c1" and write its reported cell viability.
120

Supply recorded cell viability for "O=C(O)C(=O)Nc1cccc(-c2nnn[nH]2)c1" here.
107

Tell us which cell viability value is on record for "CCOC(=O)c1c(/C(C#N)=C\N)c2ccc(Cl)c(Cl)c2n1C"
90.6

Tell us which cell viability value is on record for "CN(C)c1ccccc1CN1CCCN(Cc2ccccc2N(C)C)C1c1ccncc1"
92.9

Determine its reported cell viability: "CNC(=O)c1cc(Oc2ccc(NC(=O)Nc3ccc(Cl)c(C(F)(F)F)c3)c(F)c2)ccn1"
94.1

Dear colleague, please send me the reported cell viability for "Oc1ccc(-c2nc(-c3ccncc3)c(-c3ccc(F)cc3)[nH]2)cc1" when you can.
123

Determine from records and report cell viability for "CC(C)C1=N[N](C\2=C1C(=O)N\C(=N2)CC3=CC=C(OCCO)C=C3)C4=C(Cl)C=CC=C4Cl"
127

Read the entry "COc1ccc(-c2cc3c(C)nc(N)nc3n([C@H]3CC[C@H](OCCO)CC3)c2=O)cn1" and write its reported cell viability.
72.3

Quickly give me recorded cell viability for "CN1CCN(c2cc(C(=O)Nc3ccc4c(c3)-c3c(c(C(N)=O)nn3-c3ccc(F)cc3)CC4)c(Cl)cn2)CC1"
124

Kindly indicate its recorded cell viability. Item: "CCNC(=O)c1noc(-c2cc(C(C)C)c(O)cc2O)c1-c1ccc(CN2CCOCC2)cc1"
100

Quick one: give measured cell viability for "OC[C@H]1O[C@H](C[C@@H]1O)N2\C=C(\I)C(=O)NC2=O"
114

Consider the compound "CCC[S+](=O)([O-])Nc1ccc(F)c(C(=O)c2c[nH]c3ncc(-c4ccc(Cl)cc4)cc23)c1F" and give its recorded cell viability.
125

Using the record for "C[C@@H](Oc1ccc2[nH]nc(/C=C/c3cnn(CCO)c3)c2c1)c1c(Cl)cncc1Cl" , state its measured cell viability.
94.6
